Assay: Human liver microsomal stability of compound in microsomal protein, PBS buffer pH 7.4, NADPH, glucose-6-phosphate and glucose-6-phosphate dehydrogenase media. Aliquotes were taken at 5 time points and after stopping the reaction, supernatants were analyzed using HPLC coupled with a tandem mass spectrometer. The elimination constant, half-life, and intrinsic clearance are determined as results using linear regression analysis.
Type: ADME, microsomes, Microsome
Settings: liver microsomes
MEASUREMENT_TYPE: microsomal CLint (µL/min/mg)

{"CHEMICAL_STRUCTURE": "N#C[C@H](Nc1cccc(-c2nn[nH]n2)c1)c1cc(Cl)cc(NC(=O)OCc2ccccc2)c1", "QUANTITATIVE_RESULT": 13.6}
{"CHEMICAL_STRUCTURE": "O=C(Nc1ccc2c(c1)CNC2)c1cccc2[nH]c(C(F)(F)F)cc12", "QUANTITATIVE_RESULT": 14.1}
{"CHEMICAL_STRUCTURE": "NCc1cccc(NC(=O)C[C@H](NC(=O)OCc2ccccc2)c2ccc(OCc3ccccc3)c(Br)c2)c1", "QUANTITATIVE_RESULT": 12.4}

I. O=C(O)c1cc(Cl)c(F)cc1S(=O)(=O)Nc1ccc(Oc2ccccc2Cl)cc1
II. O=C(/C=C/c1ccccc1)C(=O)N1CCN(CCc2ccccc2)CC1
Incoming: Response body: label of entry with the larger microsomal CLint; valid values I , II . Refer to your chosen item by its label in the answer.
Outgoing: II
(II: 167 µL/min/mg, I: 67.4 µL/min/mg)

----------
Experiment: Mouse liver microsomal stability of compound in microsomal protein, PBS buffer pH 7.4, NADPH, glucose-6-phosphate and glucose-6-phosphate dehydrogenase media. Aliquotes were taken at 5 time points and after stopping the reaction, supernatants were analyzed using HPLC coupled with a tandem mass spectrometer. The elimination constant, half-life, and intrinsic clearance are determined as results using linear regression analysis.
Type: ADME, microsomes, Microsome
Settings: liver microsomes
MEASUREMENT_TYPE: microsomal CLint (µL/min/mg)

Solved cases below.
{"CHEMICAL_STRUCTURE": "O=C(Nc1ccc2c(c1)CNC2)c1cc(F)cc2c1CCC2", "microsomal CLint (µL/min/mg)": 37.4}
{"CHEMICAL_STRUCTURE": "O=C(Nc1ccc2c(c1)CNC2)c1cc(F)cc2[nH]c(-c3ccc(F)cc3)nc12", "microsomal CLint (µL/min/mg)": 36.8}

a. N#Cc1cc2c(cc1NC(=O)c1cc(F)cc3[nH]ncc13)CNC2
b. CN(c1ccc2c(c1)CNC2)[C@H](C(=O)NCC(F)F)c1cc(Cl)cc(C2CC2)c1
c. O=C(Nc1cc2c(c(C3=CCOCC3)c1)CNC2)c1cc(F)cc2[nH]ncc12
Incoming: Please list the entries, largest microsomal CLint first. Dear reader, please state the labels in the requested order.
Outgoing: a, c, b

P. CC(C)NC(=O)[C@H](Nc1ccc2c(c1)CNC2)c1cc(Cl)cc2[nH]c(-c3ccccc3)nc12
Q. O=C(Nc1cc2c(c(-c3c[nH]c(=O)c(F)c3)c1)CNC2)c1cc(F)cc2[nH]ncc12
R. Cc1c(C(=O)Nc2cc(-c3cccnc3)ccn2)cc(C2CC2)n1C
S. O=C(NCC(F)F)[C@H](Nc1ccc2c(c1)CNC2)c1cc(Cl)cc2c1CCC2
Incoming: Rank ascending by microsomal CLint. Reply with the item labels sorted in the order that was asked for.
Outgoing: P, S, Q, R
(P: 11 µL/min/mg, S: 31.6 µL/min/mg, Q: 243 µL/min/mg, R: 388 µL/min/mg)

I. O=C(Nc1ccc2c(c1)CNC2)c1cc(F)cc2[nH]ncc12
II. O=C(Nc1ccc2c(c1)CNC2)c1cc(Cl)cc2c1cnn2C1CCC1
Incoming: Which entry has a larger number for microsomal CLint, I or II ? Identify your selection by its label.
Outgoing: I
(I: 180 µL/min/mg, II: 13.4 µL/min/mg)

A. COc1cc(Cl)cc([C@H](Nc2ccc3c(c2)CNC3)C(=O)NCC(F)F)c1
B. COc1cc(Cc2c(-c3ccc(F)cc3)noc2C)nc(N2CCNCC2)n1
C. CCCCNC(=O)[C@H](Nc1ccc2c(c1)CNC2)c1cc(Cl)cc(C2CC2)c1
Incoming: Please list these compounds in decreasing order of microsomal CLint. # output: labels, in the requested order
Outgoing: B, C, A
(B: 33 µL/min/mg, C: 19.5 µL/min/mg, A: 12.9 µL/min/mg)
